test system: Respiratory syncytial virus; assay: Antiviral activity against Respiratory syncytial virus in HeLa cells; type: functional; conditions: human respiratory syncytial virus
List of MIC50 values.

> print(dat)
                                   molecule        target.or.test.system  value.reported
1  CN1O[C@H](CO)C[C@@H]1c1cc2ccccc2c2ccccc12 (racemic)  Respiratory syncytial virus      > 16 µg/mL

Inquiry: Please look at this molecule and report its MIC50: Nc1ncnc2c1ncn2C[C@H](O)CO [(S)-DHPA]
Reply text: > 400 µg/mL

Inquiry: Specify measured MIC50 for O=c1[nH]c(=O)n([C@H]2C[C@H](O)[C@@H](CO)O2)cc1/C=C/Br .
Reply text: > 400 µg/mL

Inquiry: Give reported MIC50 value for NC(=O)c1ncn([C@@H]2O[C@H](CO)[C@@H](O)[C@H]2O)n1
Reply text: 9.6 µg/mL
